// data source = ChEMBL document CHEMBL2157869

assay: Cmax in lung cancer patient serum at 2 gram, po qd
Assay type: ADME, organism-based
Design: route oral
experimental.context: human

smiles.code | Cmax / ng/mL
CC[C@H]1OC(=O)[C@H](C)[C@@H](O[C@H]2C[C@@](C)(OC)[C@@H](O)[C@H](C)O2)[C@H](C)[C@@H](O[C@@H]2O[C@H](C)C[C@H](N(C)C)[C@H]2O)[C@](C)(O)C[C@@H](C)CN(C)[C@H](C)[C@@H](O)[C@]1(C)O | 940

---

assay: Clearance in Sprague-Dawley rat at 2 mg/kg, iv and 10 mg/kg, po
Assay type: ADME, organism-based
experimental.context: in vivo

smiles.code | clearance, mL/min/kg
CC[C@H]1OC(=O)[C@H](C)[C@@H](O[C@H]2C[C@@](C)(OC)[C@@H](O)[C@H](C)O2)[C@H](C)[C@@H](O[C@@H]2O[C@H](C)C[C@H]3[C@H]2O/C(=N\C(C)C)N3C)[C@](C)(O)C[C@@H](C)CN(C)[C@H](C)[C@@H](O)[C@]1(C)O | 12.3
